- System: SK-MEL-5 melanoma
- TEST: NCI tumour cell line growth inhibition, 48 h; in the data active = GI50 below about 0.43 µM; inactive = the rest
Labels: 1 for active, -1 for inactive

# COMPOUND, LABEL
records = [
    ("CN(C)CCN1CCC(Cc2ccccc2)CC1", -1),
    ("NC(N)=Nc1nc2ccccc2o1", -1),
    ("O=c1[nH]c(-c2cccc(F)c2)cc2cc(F)ccc12", 1),
    ("CCSc1nc(N=Cc2ccccc2O)c2cn[nH]c2n1", -1),
    ("O=c1cccc(C#CC#C[C@@H]2O[C@H]2CO)o1", -1),
    ("CCN(Cc1c(F)cccc1OC)c1ccc(CO)c(Cl)c1", -1),
    ("O=c1[nH]c(O)c(C=Nc2ccc(-c3nc4ccccc4o3)cc2)c(=O)[nH]1", -1),
    ("C[C@H](CCOc1cccc(CC(=O)O)c1)N(Cc1cccc(C(F)(F)F)c1Cl)CC(c1ccccc1)c1ccccc1", -1),
    ("Cc1cccc(NC2=C(Cl)C(=O)c3nc(C)ccc3C2=O)c1", -1),
    ("CC(C)=CCC1=C(O)c2ccccc2C(=O)C1=O", -1),
    ("CCCCNCCCNCCCNC(=O)c1csc(-c2csc(CCNC(=O)C(NC(=O)C(C)C(O)C(C)NC(=O)C(NC(=O)c3nc(C(CC(N)=O)NCC(N)C(N)=O)nc(N)c3C)C(OC3OC(CO)C(O)C(O)C3OC3OC(CO)C(O)C(OC(N)=O)C3O)c3cnc[nH]3)C(C)O)n2)n1 (stereo unspecified)", -1),
]

Each recorded value in this set is attributed to PubChem BioAssay (NCI).
